# target_or_test_system: T1, GST-NeDLG PDZ domains 1-2 fusion protein (Mus musculus (Mouse), UniProt P70175 147-332)
# T1 construct: also called NeDLG1; not shown: glutathione S-transferase (GST) encoded by pGEX-3X
# T1 chain: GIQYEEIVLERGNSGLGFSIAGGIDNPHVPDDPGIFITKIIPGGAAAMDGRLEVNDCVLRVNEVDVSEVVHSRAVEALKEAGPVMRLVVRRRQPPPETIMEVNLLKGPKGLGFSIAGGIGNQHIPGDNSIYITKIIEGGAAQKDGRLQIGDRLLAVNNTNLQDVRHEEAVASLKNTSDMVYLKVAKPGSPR
# protocol_summary: G assay titration of biotinylated peptide on immobilized GST-PDZ, saturation fit (apparent affinity)
Ends that are not written are not given here. * marks the point of attachment. Biotin = O=C1N[C@H]2[C@H](CS[C@H]2CCCCC(=O)*)N1

| binder | Kd, µM |
| --- | --- |
| Biotin-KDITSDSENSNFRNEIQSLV [CD95 (Apo-1/Fas) C-terminal peptide AA13L] | 54 |
| Biotin-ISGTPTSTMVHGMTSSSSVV [CLASP-2 C-terminal peptide AA2L] | 7.5 |
